Target: Adenosine receptor A2b (Homo sapiens)
Sequence (whole entry): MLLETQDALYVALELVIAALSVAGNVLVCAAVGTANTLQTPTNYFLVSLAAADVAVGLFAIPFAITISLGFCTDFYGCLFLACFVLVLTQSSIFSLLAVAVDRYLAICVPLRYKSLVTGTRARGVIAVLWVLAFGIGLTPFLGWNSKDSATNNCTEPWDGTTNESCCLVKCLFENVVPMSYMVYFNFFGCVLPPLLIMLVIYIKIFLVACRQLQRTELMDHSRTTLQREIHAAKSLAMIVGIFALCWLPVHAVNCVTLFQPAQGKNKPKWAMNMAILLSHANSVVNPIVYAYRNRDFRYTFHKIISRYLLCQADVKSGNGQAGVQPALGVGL
Experiment: Antagonist activity at human A2B receptor expressed in CHO cells assessed as inhibition of NECA-stimulated cAMP production at 1 uM by scintillation counting method
Assay type: functional, cell-based
Quantity: inhibition (%)

chemical_structure=Cn1cc2nc(-c3ccccc3)[nH]c(=O)c2n1 recorded_number=1
chemical_structure=COc1ccc(C(=O)Nc2nc(-c3cccs3)nc3cn(-c4ccccc4)nc23)cc1 recorded_number=1
chemical_structure=Cc1nc2cn(C)nc2c(=O)[nH]1 recorded_number=1
chemical_structure=COc1ccc(-c2nc(N)c3nn(-c4ccc(OC)cc4)cc3n2)cc1 recorded_number=1
chemical_structure=Cc1ccc(-c2nc3cn(-c4ccccc4)nc3c(=O)[nH]2)o1 recorded_number=1
chemical_structure=Nc1nc(-c2ccccc2)nc2nn(-c3ccccc3)nc12 recorded_number=1
chemical_structure=Nc1nc(-c2ccccc2)nc2cn(Cc3ccccc3)nc12 recorded_number=1
chemical_structure=COc1ccc(-c2nc(NC(=O)c3ccncc3)c3nn(-c4ccccc4)cc3n2)cc1 recorded_number=1

1 = O=C(Cc1ccccc1)Nc1nc(-c2cccs2)nc2cn(-c3ccccc3)nc12
2 = COc1ccc(-c2nc(N)c3nn(-c4ccccc4)cc3n2)cc1
3 = Nc1nc(-c2ccc(Cl)cc2)nc2cn(-c3ccccc3)nc12
4 = COc1ccc(-n2cc3nc(-c4cccs4)nc(N)c3n2)cc1
Q) Hey, can you sort those molecules up there by inhibition, smallest first? Kindly provide the labels arranged according to the requested ordering.
A) 1, 2, 3, 4
(1: 1%, 2: 2%, 3: 3%, 4: 31%)
